measurement target: Kinesin-like protein KIF11 (Homo sapiens)
Sequence (P52732 whole entry): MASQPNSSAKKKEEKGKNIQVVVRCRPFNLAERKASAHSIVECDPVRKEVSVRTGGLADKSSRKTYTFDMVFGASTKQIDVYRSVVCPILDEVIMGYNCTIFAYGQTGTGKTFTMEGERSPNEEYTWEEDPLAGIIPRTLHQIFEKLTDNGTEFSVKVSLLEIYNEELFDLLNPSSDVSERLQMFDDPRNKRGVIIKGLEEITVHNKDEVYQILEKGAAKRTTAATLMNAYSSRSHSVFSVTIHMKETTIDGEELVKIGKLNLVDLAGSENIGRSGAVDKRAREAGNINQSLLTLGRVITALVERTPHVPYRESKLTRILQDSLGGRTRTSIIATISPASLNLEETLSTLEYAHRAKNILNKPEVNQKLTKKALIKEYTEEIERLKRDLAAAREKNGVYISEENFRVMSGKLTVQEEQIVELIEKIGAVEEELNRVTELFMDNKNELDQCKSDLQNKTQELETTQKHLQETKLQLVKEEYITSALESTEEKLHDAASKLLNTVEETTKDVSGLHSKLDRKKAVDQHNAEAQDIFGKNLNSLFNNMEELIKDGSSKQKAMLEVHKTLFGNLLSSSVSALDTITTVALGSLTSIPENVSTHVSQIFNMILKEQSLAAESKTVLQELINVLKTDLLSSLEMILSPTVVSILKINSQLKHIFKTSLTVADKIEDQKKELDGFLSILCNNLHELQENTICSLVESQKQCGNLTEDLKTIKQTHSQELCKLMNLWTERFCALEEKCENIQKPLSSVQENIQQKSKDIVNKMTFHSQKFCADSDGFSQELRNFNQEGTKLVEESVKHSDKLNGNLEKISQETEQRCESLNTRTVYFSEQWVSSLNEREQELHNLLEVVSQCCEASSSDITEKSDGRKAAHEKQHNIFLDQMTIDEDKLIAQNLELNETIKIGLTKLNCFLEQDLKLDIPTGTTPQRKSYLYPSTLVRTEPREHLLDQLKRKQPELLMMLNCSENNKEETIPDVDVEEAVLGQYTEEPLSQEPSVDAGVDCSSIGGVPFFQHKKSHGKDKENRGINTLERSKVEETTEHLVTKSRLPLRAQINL
pKi: −log10 of the molar value.
pKi of 7 or higher: true (1). Under 7: false (0).

Please review the following examples before continuing.
NCCSC(c1ccccc1)(c1ccccc1)c1cccc(Cl)c1 : false (0)
N#Cc1cccc(C(SCCN)(c2ccccc2)c2ccccc2)c1 : false (0)
CN(C)C(=O)c1cccc(C(SCCN)(c2ccccc2)c2ccccc2)c1 : false (0)

Request: Form field: pKi at least 7? Entry: N[C@@H](CSC(c1ccccc1)(c1ccccc1)c1cccc(O)c1)C(=O)O
Result: true (1)

Request: Identify whether the reported pKi of the following compound is 7 or greater: CSc1cccc(C(SCCN)(c2ccccc2)c2ccccc2)c1
Result: false (0)

* * *

Here's a batch of compounds along with measured GI50 for K562.
Quick reminder: number only, in nM, skip the unit.

CN(C)C(=O)c1ccc(C(SCCN)(c2ccccc2)c2ccccc2)cc1 : 2910

Request: Report value only: GI50, K562, Cc1cccc(C(SCCN)(c2ccccc2)c2ccccc2)c1
Result: 698

Request: Find the measured GI50 of NCCSC(c1ccccc1)(c1ccccc1)c1cccc(Cl)c1 with K562 as test system.
Result: 1040

Request: Lab note: K562 assay, enter GI50 for N#Cc1ccc(C(SCCN)(c2ccccc2)c2ccccc2)cc1 here
Result: 2180

Request: Answer briefly: GI50 recorded on K562 for CS(=O)(=O)c1cccc(C(SCCN)(c2ccccc2)c2ccccc2)c1
Result: 2560

Request: Quote K562 GI50 for entry NCCCC(c1ccccc1)(c1ccccc1)c1ccc(Cl)cc1 .
Result: 337

* * *

protocol notes: Turbidimetric solubility of the compound at pH 7.4
Format: physicochemical
assay conditions: buffer
Reported solubility kinetic values for the following compounds.

Cc1cccc(C(CCCN)(c2ccccc2)c2ccccc2)c1 : > 100 µM

Request: Give solubility kinetic for the following compound: Cc1cccc(C(CCC(N)C(=O)O)(c2ccccc2)c2ccccc2)c1 (racemic)
Result: > 100 µM

* * *

Tested on: K562
Label 1 (yes) when GI50 is strictly below 2 µM; otherwise label 0 (no).

Please review the following examples before continuing.
CC(=O)c1cccc(C(SCCN)(c2ccccc2)c2ccccc2)c1 : 1 (yes)
NCCSC(c1ccccc1)(c1ccccc1)c1ccccc1 : 0 (no)
CN(C)C(=O)c1cccc(C(SCCN)(c2ccccc2)c2ccccc2)c1 : 0 (no)
NC(=O)c1cccc(C(SC[C@H](N)C(=O)O)(c2ccccc2)c2ccccc2)c1 : 0 (no)

Request: A record lists CC(=O)NCc1cccc(C(SCCN)(c2ccccc2)c2ccccc2)c1 . Is its GI50 below 2 µM?
Result: 0 (no)

* * *

Test system: HCT-116
protocol notes: Antiproliferative activity against human HCT116 cells after 72 hrs by Alamar blue assay
Type: functional
assay conditions: HCT-116, 72 h
endpoint label: GI50 (nM)
# value in nM; strip the unit string

The cases that follow already have their GI50 on record.
Cc1cccc(C(CC[C@H](N)C(=O)O)(c2ccccc2)c2ccccc2)c1 : 95
Cc1cccc(C(CCC(N)C(=O)O)(c2ccccc2)c2ccccc2)c1 (racemic) : 99
N[C@H](CCC(c1ccccc1)(c1ccccc1)c1ccccc1)C(=O)O : 472
NCCCC(c1ccccc1)(c1ccccc1)c1ccccc1 : 213
Cc1cccc(C(CC[C@@H](N)C(=O)O)(c2ccccc2)c2ccccc2)c1 : 51
Cc1ccc(C(CCC(N)C(=O)O)(c2ccccc2)c2ccccc2)cc1 (racemic) : 84
Cc1ccc(C(CCCN)(c2ccccc2)c2ccccc2)cc1 : 154
Cc1ccc(C(CC[C@H](N)C(=O)O)(c2ccccc2)c2ccccc2)cc1 : 115

Request: Quote GI50 reported for N[C@@H](CSC(c1ccccc1)(c1ccccc1)c1ccc2ccccc2c1)C(=O)O please.
Result: 153

Request: Answer with reported GI50 of Cc1ccc(C(CC[C@@H](N)C(=O)O)(c2ccccc2)c2ccccc2)cc1
Result: 40

Request: Complete the entry with GI50 for Cc1ccc(C(SC[C@H](N)C(=O)O)(c2ccccc2)c2ccccc2)cc1
Result: 130

Request: Supply GI50 value. Item: NCCSC(c1ccccc1)(c1ccccc1)c1ccccc1
Result: 1210

Request: Consider the compound NCCCC(c1ccccc1)(c1ccccc1)c1ccc(Cl)cc1 . State its measured GI50.
Result: 230

Request: # return recorded GI50 for input NC(CCC(c1ccccc1)(c1ccccc1)c1ccccc1)C(=O)O (racemic)
Result: 828

Request: Give the reported value of GI50 for this record: N[C@@H](CCC(c1ccccc1)(c1ccccc1)c1ccccc1)C(=O)O
Result: 1600
